system_tested: UniProt:Q9NZQ7
Sequence (Q9NZQ7 whole entry): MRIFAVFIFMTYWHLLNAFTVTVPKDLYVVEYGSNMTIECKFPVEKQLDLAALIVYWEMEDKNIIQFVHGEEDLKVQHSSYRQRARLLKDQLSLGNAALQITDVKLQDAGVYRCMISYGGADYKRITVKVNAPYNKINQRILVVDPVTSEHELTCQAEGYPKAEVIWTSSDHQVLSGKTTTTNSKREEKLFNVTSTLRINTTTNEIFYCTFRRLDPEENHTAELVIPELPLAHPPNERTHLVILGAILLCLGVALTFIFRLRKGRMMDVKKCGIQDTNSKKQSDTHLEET
measurement_description: Binding affinity to PDL1 (unknown origin) assessed as change in melting temperature at 100 uM by fluorescence based real time RT-PCR analysis
Measured ΔTm values are reported for all entries that follow.
Please reply with the bare figure in °C and do not write the unit itself.

Below, 3 molecules whose answers are already recorded.
COc1ccc(/C=C/c2cccc(NC(=O)Nc3cccc(Cl)c3)c2)cc1: 3.91
COc1ccc(Cc2cn(CCNC(=O)Nc3cccc(Cl)c3)nn2)cc1: 1.89
COc1ccc(Cc2cn(CCNC(=O)Nc3ccccc3)nn2)cc1: 2.1

Query: ΔTm; subject: COc1ccc(Cc2cn(CCNC(=O)Nc3ccccc3C)nn2)cc1
2.18

Query: ΔTm; subject: COc1ccc(Cc2cn(CCNC(=O)Nc3ccc(Br)cc3)nn2)cc1
8.74

Query: ΔTm; subject: COc1ccc(Cc2cn(CCNC(=O)Nc3ccc(Cl)cc3)nn2)cc1
1.93

====

Tested on: A549
measurement_description: Immunomodulatory activity in human A549 cells assessed as reduction in PD-L1 expression level at 100 uM incubated for 24 hrs by ELISA relative to control
Type: functional
Parameters: scale not given: the % may be the effect or the level left
experimental_readout: Activity (%)
Please reply with the bare figure in % and do not write the unit itself.

COc1ccc(Cc2cn(CCNC(=O)Nc3cccc(Br)c3)nn2)cc1: 80
COc1ccc(/C=C/c2cccc(NC(=O)Nc3cccc(Cl)c3)c2)cc1: 49
COc1ccc(/C=C\c2cccc(NC(=O)Nc3cccc(Cl)c3)c2)cc1: 92
COc1ccc(Cc2cn(CCNC(=O)Nc3ccccc3)nn2)cc1: 83
COc1ccc(CCc2cccc(NC(=O)Nc3cccc(Cl)c3)c2)cc1: 51
COc1ccc(Cc2cn(CCNC(=O)Nc3ccc(C)cc3)nn2)cc1: 66
COc1ccc(Cc2cn(CCNC(=O)Nc3cccc(C)c3)nn2)cc1: 90

Here is another molecule to look at.
Query: Activity; subject: COc1ccc(Cc2cn(CCNC(=O)Nc3ccccc3C)nn2)cc1
82

====

Measured IC50 values are reported for all entries that follow.
Test system: A549
measurement_description: Antiproliferative activity against human A549 cells incubated for 2 days by MTT assay
Assay type: functional, cell-based
condition_label: A549, 48 h

Below, 2 molecules whose answers are already recorded.
COc1ccc(CCc2cccc(NC(=O)Nc3cccc(Cl)c3)c2)cc1: > 200 µM
COc1ccc(Cc2cn(CCNC(=O)Nc3ccccc3)nn2)cc1: > 200 µM

Here is another molecule to look at.
Provide value of IC50 for this record tested with A549: COc1ccc(Cc2cn(CCNC(=O)Nc3cccc(C)c3)nn2)cc1
> 200 µM

====

Test system: A549
measurement_description: Induction of apoptosis in human A549 cells assessed as apoptotic cells at 100 uM incubated for 24 hrs by FITC-Annexin V staining based flow cytometric analysis (reference value: 20%)
Assay type: functional
experimental_readout: Activity (%)
Please reply with the bare figure in % and do not write the unit itself.

Below, 6 compounds whose answers are already recorded.
COc1ccc(CCc2cccc(NC(=O)Nc3ccccc3Cl)c2)cc1: 76
COc1ccc(/C=C\c2cccc(NC(=O)Nc3ccccc3Cl)c2)cc1: 61
COc1ccc(CCc2cccc(NC(=O)Nc3cccc(Cl)c3)c2)cc1: 95
CCN(CC)CCNC(=O)c1c(C)[nH]c(/C=C2\C(=O)Nc3ccc(F)cc32)c1C: 56
COc1ccc(/C=C\c2cccc(NC(=O)Nc3ccc(Cl)cc3)c2)cc1: 69
COc1ccc(/C=C/c2cccc(NC(=O)Nc3ccccc3Cl)c2)cc1: 42

Query: Activity; subject: COc1ccc(/C=C/c2cccc(NC(=O)Nc3ccc(Cl)cc3)c2)cc1
48

Query: Activity; subject: CNC(=O)c1cc(Oc2ccc(NC(=O)Nc3ccc(Cl)c(C(F)(F)F)c3)cc2)ccn1
48

Query: Activity; subject: COc1ccc(/C=C/c2cccc(NC(=O)Nc3cccc(Cl)c3)c2)cc1
75
